The measurements presented in this section are drawn from patent US9346810B2.

- test-system: Recombinant human JAK2 catalytic domain (Homo sapiens (Human))
- measurement-description: JAK2 kinase assay (Z'-LYTE, Tyr 6 Peptide)
- Type: biochemical
- condition-parameters: read-out: IC50 in JAK2 kinase assay
pIC50: −log10 of the molar value.
measurement-name: pIC50

// worked examples, pIC50 included
                                smiles_repr                               test_system   assay_value
0  C#CCN(c1ccc(S(C)(=O)=O)cn1)[C@@H]1CCN(c2ncnc3[nH]ccc23)C1  Recombinant human JAK2 catalytic domain (Homo sapiens (Human))  6.00 to 7.00
1  CN(c1ccc(NS(C)(=O)=O)cn1)[C@@H]1CCN(c2ncnc3[nH]ccc23)C1  Recombinant human JAK2 catalytic domain (Homo sapiens (Human))  6.00 to 7.00
2  Cc1cc(Cl)nc(N(C)[C@@H]2CCN(c3ncnc4[nH]ccc34)C2)c1C#N  Recombinant human JAK2 catalytic domain (Homo sapiens (Human))  7.00 to 9.00

Look up and report pIC50, with Recombinant human JAK2 catalytic domain (Homo sapiens (Human)) as system, for CN(C(=O)Nc1ccc(C#N)cc1)[C@@H]1CCN(c2ncnc3[nH]ccc23)C1
6.00 to 7.00

Under Recombinant human JAK2 catalytic domain (Homo sapiens (Human)), report pIC50 for CN(c1ccc(C#N)cn1)[C@@H]1CCN(c2ncnc3[nH]ccc23)C1
7.00 to 9.00

Under Recombinant human JAK2 catalytic domain (Homo sapiens (Human)): report pIC50 of CN(c1ccc([N+](=O)[O-])cn1)[C@@H]1CCN(c2ncnc3[nH]ccc23)C1 .
6.00 to 7.00

Given Cc1cc(N(C)[C@@H]2CCN(c3ncnc4[nH]ccc34)C2)ncc1C#N , report its pIC50 on Recombinant human JAK2 catalytic domain (Homo sapiens (Human)).
7.00 to 9.00

* * *

- test-system: Recombinant human JAK2 catalytic domain (Homo sapiens (Human), UniProt O60674)
- Sequence (O60674 849-1124): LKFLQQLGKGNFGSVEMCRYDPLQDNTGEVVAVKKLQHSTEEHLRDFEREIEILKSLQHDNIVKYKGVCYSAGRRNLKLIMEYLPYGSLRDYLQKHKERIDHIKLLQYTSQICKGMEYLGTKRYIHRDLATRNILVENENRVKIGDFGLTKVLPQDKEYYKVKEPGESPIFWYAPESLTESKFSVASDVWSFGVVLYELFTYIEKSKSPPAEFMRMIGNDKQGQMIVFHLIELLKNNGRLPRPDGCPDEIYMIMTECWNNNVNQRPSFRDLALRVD
- measurement-description: JAK2 kinase assay (Z'-LYTE, Tyr 6 Peptide)
- Assay type: biochemical
- condition-parameters: read-out: IC50 in JAK2 kinase assay
- Procedure: JAK1/2/3 kinase assay are performed in vitro using Kit-Tyr 6 Peptide (Invitrogen, Cat. No. PV4122). TYK2 kinase assay are performed in vitro using Z′-LYTE™ Kinase Assay Kit-Tyr 3 Peptide (Invitrogen, Cat. No. PV3192). […] All compounds are initially tested at 8 different concentrations (1 μM down to 0.0003 μM) using a 1:3 serial dilution scheme.
measurement-name: IC50

Answered cases to consult:
>>> df
                                smiles_repr     assay_value
0  CN(c1ccc(S(=O)(=O)NC2COC2)cn1)[C@@H]1CCN(c2ncnc3[nH]ccc23)C1     1 to 100 nM
1  CC(C)S(=O)(=O)N(C)[C@@H]1CCN(c2ncnc3[nH]ccc23)C1  100 to 1000 nM
2  CN(C(=O)Nc1ccc(C(F)(F)F)cc1)[C@@H]1CCN(c2ncnc3[nH]ccc23)C1  100 to 1000 nM
3  COc1nc(N(C)[C@@H]2CCN(c3ncnc4[nH]ccc34)C2)ccc1C#N     1 to 100 nM
4  CN(c1ccc(C#N)cn1)[C@@H]1CCN(c2ccnc3[nH]ccc23)C1     1 to 100 nM
5  C=CCN(C1CCCC1)[C@@H]1CCN(c2ncnc3[nH]ccc23)C1     1 to 100 nM
6  CN(c1ccc2nn[nH]c2n1)[C@@H]1CCN(c2ncnc3[nH]ccc23)C1  100 to 1000 nM
7  CNS(=O)(=O)N(C)[C@@H]1CCN(c2ncnc3[nH]ccc23)C1     1 to 100 nM
8  CN(c1ccc(C#N)c2ccccc12)[C@@H]1CCN(c2ncnc3[nH]ccc23)C1     1 to 100 nM

Consider the molecule CN(c1ccc(Br)cn1)[C@@H]1CCN(c2ncnc3[nH]ccc23)C1 . State its measured IC50.
100 to 1000 nM
